Test system: avian E. coli
assay.method.text: Colibacillosis in chickens, medicated feed
Assay type: in vivo
particulars: 300 gm./ton feed; about 5 weeks old; 10^-2 dilution challenge; first test
Wt. for assorted compounds

{"compound": "C=CCn1cc(C(N)=O)c([N+](=O)[O-])n1 [Compound 16, 1-allyl-3-nitro-4-pyrazolecarboxamide]", "Wt. (gm.)": 1090}
{"compound": "NC(=O)c1cn(CCO)nc1[N+](=O)[O-] [Compound 32]", "Wt. (gm.)": 1103}
{"compound": "CC(=O)OCCn1cc(C(N)=O)c([N+](=O)[O-])n1 [Compound 80]", "Wt. (gm.)": 1139}
{"compound": "CCOCCn1cc(C(N)=O)c([N+](=O)[O-])n1 [Compound 34]", "Wt. (gm.)": 1136}

Cited source for all entries: patent US4145554A
